- ASSAY REMARKS: Tmax in Sprague-Dawley rat at 35 mg/kg, po administered via gavage by UPLC-MS analysis
- Type: ADME, organism-based
- REPORTED CONDITIONS: in vivo
OBSERVED PROPERTY: Tmax (h)

INSERT INTO assay_data (structure_as_smiles, observed_property, experimental_result) VALUES
  ('COc1ccc(-n2cc(Cn3ccc4nc(-c5ccccc5F)nc-4c3)nn2)cc1', 'Tmax', 1.33);

---

- ASSAY REMARKS: Cmax in Sprague-Dawley rat at 35 mg/kg, po administered via gavage by UPLC-MS analysis
- Assay type: ADME, organism-based
- Set-up: dose 35 mg/kg, route oral
- REPORTED CONDITIONS: in vivo
OBSERVED PROPERTY: Cmax (ng/mL)

INSERT INTO assay_data (structure_as_smiles, units, experimental_result) VALUES
  ('COc1ccc(-n2cc(Cn3ccc4nc(-c5ccccc5F)nc-4c3)nn2)cc1', 'ng/mL', 22300);
